B1: library; a variant is named by its letters at N, in order (parent)
chain: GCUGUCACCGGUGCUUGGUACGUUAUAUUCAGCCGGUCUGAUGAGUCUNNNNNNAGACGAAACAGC

Variants of: B1
Assay: FACS-Seq fitted mean relative fluorescence mCherry/BFP without ligand (log10 relative fluorescence); HEK293T overexpressing SLC46A1; higher = higher reporter protein expression
Conditions: without (6R,S)-folinic acid; ligand present: no
Quick rule: FACS-Seq fitted mean (log10) of at least 0.3 means yes (1), below that means no (0).

1. GCUGUCACCGGUGCUUGGUACGUUAUAUUCAGCCGGUCUGAUGAGUCUGAAAACAGACGAAACAGC: no (0)
2. GCUGUCACCGGUGCUUGGUACGUUAUAUUCAGCCGGUCUGAUGAGUCUGUGGCAAGACGAAACAGC: no (0)
3. GCUGUCACCGGUGCUUGGUACGUUAUAUUCAGCCGGUCUGAUGAGUCUACAAUGAGACGAAACAGC: no (0)
4. GCUGUCACCGGUGCUUGGUACGUUAUAUUCAGCCGGUCUGAUGAGUCUUGAGCUAGACGAAACAGC: yes (1)
5. GCUGUCACCGGUGCUUGGUACGUUAUAUUCAGCCGGUCUGAUGAGUCUCCUGAUAGACGAAACAGC: no (0)
6. GCUGUCACCGGUGCUUGGUACGUUAUAUUCAGCCGGUCUGAUGAGUCUACCCGAAGACGAAACAGC: no (0)
7. GCUGUCACCGGUGCUUGGUACGUUAUAUUCAGCCGGUCUGAUGAGUCUCUAAAAAGACGAAACAGC: no (0)
8. GCUGUCACCGGUGCUUGGUACGUUAUAUUCAGCCGGUCUGAUGAGUCUAAUAACAGACGAAACAGC: no (0)
9. GCUGUCACCGGUGCUUGGUACGUUAUAUUCAGCCGGUCUGAUGAGUCUAGUCGAAGACGAAACAGC: yes (1)
10. GCUGUCACCGGUGCUUGGUACGUUAUAUUCAGCCGGUCUGAUGAGUCUGAAAGGAGACGAAACAGC: no (0)
11. GCUGUCACCGGUGCUUGGUACGUUAUAUUCAGCCGGUCUGAUGAGUCUUAAAGUAGACGAAACAGC: yes (1)
12. GCUGUCACCGGUGCUUGGUACGUUAUAUUCAGCCGGUCUGAUGAGUCUGACGCCAGACGAAACAGC: no (0)
13. GCUGUCACCGGUGCUUGGUACGUUAUAUUCAGCCGGUCUGAUGAGUCUUUAGCAAGACGAAACAGC: no (0)
14. GCUGUCACCGGUGCUUGGUACGUUAUAUUCAGCCGGUCUGAUGAGUCUCCACUUAGACGAAACAGC: no (0)
15. GCUGUCACCGGUGCUUGGUACGUUAUAUUCAGCCGGUCUGAUGAGUCUUGCCUGAGACGAAACAGC: yes (1)
16. GCUGUCACCGGUGCUUGGUACGUUAUAUUCAGCCGGUCUGAUGAGUCUUAGUGGAGACGAAACAGC: no (0)
17. GCUGUCACCGGUGCUUGGUACGUUAUAUUCAGCCGGUCUGAUGAGUCUGAGCACAGACGAAACAGC: no (0)
18. GCUGUCACCGGUGCUUGGUACGUUAUAUUCAGCCGGUCUGAUGAGUCUGUCCAGAGACGAAACAGC: yes (1)
19. GCUGUCACCGGUGCUUGGUACGUUAUAUUCAGCCGGUCUGAUGAGUCUAGAUCAAGACGAAACAGC: no (0)
20. GCUGUCACCGGUGCUUGGUACGUUAUAUUCAGCCGGUCUGAUGAGUCUUAUGUGAGACGAAACAGC: no (0)
21. GCUGUCACCGGUGCUUGGUACGUUAUAUUCAGCCGGUCUGAUGAGUCUGACUCCAGACGAAACAGC: yes (1)
22. GCUGUCACCGGUGCUUGGUACGUUAUAUUCAGCCGGUCUGAUGAGUCUGAAUCGAGACGAAACAGC: no (0)
23. GCUGUCACCGGUGCUUGGUACGUUAUAUUCAGCCGGUCUGAUGAGUCUAAUAAGAGACGAAACAGC: no (0)
24. GCUGUCACCGGUGCUUGGUACGUUAUAUUCAGCCGGUCUGAUGAGUCUGGGACUAGACGAAACAGC: no (0)
25. GCUGUCACCGGUGCUUGGUACGUUAUAUUCAGCCGGUCUGAUGAGUCUUCGAAGAGACGAAACAGC: no (0)
26. GCUGUCACCGGUGCUUGGUACGUUAUAUUCAGCCGGUCUGAUGAGUCUUUAGGAAGACGAAACAGC: yes (1)
27. GCUGUCACCGGUGCUUGGUACGUUAUAUUCAGCCGGUCUGAUGAGUCUAUAGGCAGACGAAACAGC: yes (1)
28. GCUGUCACCGGUGCUUGGUACGUUAUAUUCAGCCGGUCUGAUGAGUCUGUCGAUAGACGAAACAGC: no (0)
29. GCUGUCACCGGUGCUUGGUACGUUAUAUUCAGCCGGUCUGAUGAGUCUACUUAUAGACGAAACAGC: yes (1)
30. GCUGUCACCGGUGCUUGGUACGUUAUAUUCAGCCGGUCUGAUGAGUCUCCGGUUAGACGAAACAGC: no (0)
31. GCUGUCACCGGUGCUUGGUACGUUAUAUUCAGCCGGUCUGAUGAGUCUUGUGUGAGACGAAACAGC: no (0)
32. GCUGUCACCGGUGCUUGGUACGUUAUAUUCAGCCGGUCUGAUGAGUCUUGUCGGAGACGAAACAGC: no (0)
33. GCUGUCACCGGUGCUUGGUACGUUAUAUUCAGCCGGUCUGAUGAGUCUACCUAGAGACGAAACAGC: yes (1)
34. GCUGUCACCGGUGCUUGGUACGUUAUAUUCAGCCGGUCUGAUGAGUCUGUAGAUAGACGAAACAGC: yes (1)
35. GCUGUCACCGGUGCUUGGUACGUUAUAUUCAGCCGGUCUGAUGAGUCUUGUAUGAGACGAAACAGC: no (0)
36. GCUGUCACCGGUGCUUGGUACGUUAUAUUCAGCCGGUCUGAUGAGUCUCAGACAAGACGAAACAGC: yes (1)
37. GCUGUCACCGGUGCUUGGUACGUUAUAUUCAGCCGGUCUGAUGAGUCUAAUGAAAGACGAAACAGC: yes (1)
38. GCUGUCACCGGUGCUUGGUACGUUAUAUUCAGCCGGUCUGAUGAGUCUCAAUGAAGACGAAACAGC: no (0)
39. GCUGUCACCGGUGCUUGGUACGUUAUAUUCAGCCGGUCUGAUGAGUCUUAACAAAGACGAAACAGC: yes (1)
40. GCUGUCACCGGUGCUUGGUACGUUAUAUUCAGCCGGUCUGAUGAGUCUGGACGUAGACGAAACAGC: yes (1)
41. GCUGUCACCGGUGCUUGGUACGUUAUAUUCAGCCGGUCUGAUGAGUCUCGUGGAAGACGAAACAGC: yes (1)
42. GCUGUCACCGGUGCUUGGUACGUUAUAUUCAGCCGGUCUGAUGAGUCUUAAAUGAGACGAAACAGC: yes (1)
43. GCUGUCACCGGUGCUUGGUACGUUAUAUUCAGCCGGUCUGAUGAGUCUGCGAAUAGACGAAACAGC: yes (1)
44. GCUGUCACCGGUGCUUGGUACGUUAUAUUCAGCCGGUCUGAUGAGUCUCAUGAAAGACGAAACAGC: no (0)
45. GCUGUCACCGGUGCUUGGUACGUUAUAUUCAGCCGGUCUGAUGAGUCUCUUUUUAGACGAAACAGC: yes (1)
46. GCUGUCACCGGUGCUUGGUACGUUAUAUUCAGCCGGUCUGAUGAGUCUGAGAGUAGACGAAACAGC: yes (1)
47. GCUGUCACCGGUGCUUGGUACGUUAUAUUCAGCCGGUCUGAUGAGUCUAUGCGAAGACGAAACAGC: yes (1)
48. GCUGUCACCGGUGCUUGGUACGUUAUAUUCAGCCGGUCUGAUGAGUCUUUCACUAGACGAAACAGC: no (0)
49. GCUGUCACCGGUGCUUGGUACGUUAUAUUCAGCCGGUCUGAUGAGUCUAUGGAAAGACGAAACAGC: no (0)
50. GCUGUCACCGGUGCUUGGUACGUUAUAUUCAGCCGGUCUGAUGAGUCUCGGCAUAGACGAAACAGC: yes (1)
51. GCUGUCACCGGUGCUUGGUACGUUAUAUUCAGCCGGUCUGAUGAGUCUAAAGAUAGACGAAACAGC: yes (1)
52. GCUGUCACCGGUGCUUGGUACGUUAUAUUCAGCCGGUCUGAUGAGUCUUAAAAUAGACGAAACAGC: no (0)
53. GCUGUCACCGGUGCUUGGUACGUUAUAUUCAGCCGGUCUGAUGAGUCUAAGAUUAGACGAAACAGC: yes (1)
54. GCUGUCACCGGUGCUUGGUACGUUAUAUUCAGCCGGUCUGAUGAGUCUAAUAUGAGACGAAACAGC: no (0)
55. GCUGUCACCGGUGCUUGGUACGUUAUAUUCAGCCGGUCUGAUGAGUCUGGUGCAAGACGAAACAGC: no (0)
56. GCUGUCACCGGUGCUUGGUACGUUAUAUUCAGCCGGUCUGAUGAGUCUAAUCUUAGACGAAACAGC: yes (1)
57. GCUGUCACCGGUGCUUGGUACGUUAUAUUCAGCCGGUCUGAUGAGUCUGGAGACAGACGAAACAGC: yes (1)
58. GCUGUCACCGGUGCUUGGUACGUUAUAUUCAGCCGGUCUGAUGAGUCUGAGAAAAGACGAAACAGC: no (0)
59. GCUGUCACCGGUGCUUGGUACGUUAUAUUCAGCCGGUCUGAUGAGUCUAAAGUGAGACGAAACAGC: no (0)
60. GCUGUCACCGGUGCUUGGUACGUUAUAUUCAGCCGGUCUGAUGAGUCUUAACCGAGACGAAACAGC: no (0)
61. GCUGUCACCGGUGCUUGGUACGUUAUAUUCAGCCGGUCUGAUGAGUCUGAAGACAGACGAAACAGC: yes (1)
62. GCUGUCACCGGUGCUUGGUACGUUAUAUUCAGCCGGUCUGAUGAGUCUUAAUGGAGACGAAACAGC: no (0)
63. GCUGUCACCGGUGCUUGGUACGUUAUAUUCAGCCGGUCUGAUGAGUCUAAACACAGACGAAACAGC: no (0)
64. GCUGUCACCGGUGCUUGGUACGUUAUAUUCAGCCGGUCUGAUGAGUCUUGAUACAGACGAAACAGC: no (0)
65. GCUGUCACCGGUGCUUGGUACGUUAUAUUCAGCCGGUCUGAUGAGUCUAAGGUCAGACGAAACAGC: no (0)
66. GCUGUCACCGGUGCUUGGUACGUUAUAUUCAGCCGGUCUGAUGAGUCUUUGCAGAGACGAAACAGC: yes (1)
67. GCUGUCACCGGUGCUUGGUACGUUAUAUUCAGCCGGUCUGAUGAGUCUCACACAAGACGAAACAGC: yes (1)
68. GCUGUCACCGGUGCUUGGUACGUUAUAUUCAGCCGGUCUGAUGAGUCUAACAAGAGACGAAACAGC: no (0)
69. GCUGUCACCGGUGCUUGGUACGUUAUAUUCAGCCGGUCUGAUGAGUCUGCACACAGACGAAACAGC: no (0)
70. GCUGUCACCGGUGCUUGGUACGUUAUAUUCAGCCGGUCUGAUGAGUCUGUUUGUAGACGAAACAGC: yes (1)
71. GCUGUCACCGGUGCUUGGUACGUUAUAUUCAGCCGGUCUGAUGAGUCUUUAAUAAGACGAAACAGC: no (0)
72. GCUGUCACCGGUGCUUGGUACGUUAUAUUCAGCCGGUCUGAUGAGUCUGCGUGGAGACGAAACAGC: yes (1)
73. GCUGUCACCGGUGCUUGGUACGUUAUAUUCAGCCGGUCUGAUGAGUCUAAGACGAGACGAAACAGC: yes (1)
74. GCUGUCACCGGUGCUUGGUACGUUAUAUUCAGCCGGUCUGAUGAGUCUAUGGAGAGACGAAACAGC: no (0)
75. GCUGUCACCGGUGCUUGGUACGUUAUAUUCAGCCGGUCUGAUGAGUCUAAAUGGAGACGAAACAGC: yes (1)
76. GCUGUCACCGGUGCUUGGUACGUUAUAUUCAGCCGGUCUGAUGAGUCUGAGGAUAGACGAAACAGC: yes (1)
77. GCUGUCACCGGUGCUUGGUACGUUAUAUUCAGCCGGUCUGAUGAGUCUGUACAGAGACGAAACAGC: yes (1)
78. GCUGUCACCGGUGCUUGGUACGUUAUAUUCAGCCGGUCUGAUGAGUCUGACAACAGACGAAACAGC: yes (1)
79. GCUGUCACCGGUGCUUGGUACGUUAUAUUCAGCCGGUCUGAUGAGUCUGAUUUAAGACGAAACAGC: yes (1)
80. GCUGUCACCGGUGCUUGGUACGUUAUAUUCAGCCGGUCUGAUGAGUCUGAUAACAGACGAAACAGC: no (0)
81. GCUGUCACCGGUGCUUGGUACGUUAUAUUCAGCCGGUCUGAUGAGUCUGUCACGAGACGAAACAGC: no (0)
82. GCUGUCACCGGUGCUUGGUACGUUAUAUUCAGCCGGUCUGAUGAGUCUUGAGGGAGACGAAACAGC: no (0)
83. GCUGUCACCGGUGCUUGGUACGUUAUAUUCAGCCGGUCUGAUGAGUCUUGUAAUAGACGAAACAGC: yes (1)
84. GCUGUCACCGGUGCUUGGUACGUUAUAUUCAGCCGGUCUGAUGAGUCUGUGUGCAGACGAAACAGC: no (0)
85. GCUGUCACCGGUGCUUGGUACGUUAUAUUCAGCCGGUCUGAUGAGUCUUAGCAGAGACGAAACAGC: no (0)
86. GCUGUCACCGGUGCUUGGUACGUUAUAUUCAGCCGGUCUGAUGAGUCUUGUUUGAGACGAAACAGC: no (0)
87. GCUGUCACCGGUGCUUGGUACGUUAUAUUCAGCCGGUCUGAUGAGUCUAACCUAAGACGAAACAGC: no (0)
88. GCUGUCACCGGUGCUUGGUACGUUAUAUUCAGCCGGUCUGAUGAGUCUAAAGCGAGACGAAACAGC: no (0)
